All figures here come from ChEMBL document CHEMBL1138702.

# PROCEDURE_SUMMARY: Concentration required to decrease the initial concentration of 2,2-diphenyl-1-picrylhydrazyl (DPPH) by 50% after 60 min
# pEC50 listing for each entry below
// pEC50: -log10(molar conc.)

molecule="COc1ccc(C2CC(=O)CC(=O)O2)cc1 (centres undefined)" reported_result=2.12
molecule="COc1ccc(C2CC(=O)CC(=O)O2)cc1OC (centres undefined)" reported_result=2.15

molecule C/C=C/C1CC(=O)CC(=O)O1 (centres undefined) , pEC50 observed: 2.84

molecule O=C1CC(=O)OC(c2ccccc2)C1 (centres undefined) , pEC50 observed: 2.85

----------
# ARP listing for each entry below
# PROCEDURE_SUMMARY: Antioxidant ability determined by the parameter antiradical power that is related to the factor EC50
Answer with a number only, understood to be in m/M.

compound="O=C1CC(=O)OC(c2ccccc2)C1 (centres undefined)" measured_property=ARP reported_result=0.71
compound="COc1ccc(C2CC(=O)CC(=O)O2)cc1OC (centres undefined)" measured_property=ARP reported_result=0.14
compound="COc1ccc(C2CC(=O)CC(=O)O2)cc1 (centres undefined)" measured_property=ARP reported_result=0.13

compound C/C=C/C1CC(=O)CC(=O)O1 (centres undefined) , ARP observed: 0.7
